Data provenance is patent US20130345129A1.

Target: T1, mouse GLP-1 receptor (mouse, UniProt O35659 22-463)
T1 sequence (looked up): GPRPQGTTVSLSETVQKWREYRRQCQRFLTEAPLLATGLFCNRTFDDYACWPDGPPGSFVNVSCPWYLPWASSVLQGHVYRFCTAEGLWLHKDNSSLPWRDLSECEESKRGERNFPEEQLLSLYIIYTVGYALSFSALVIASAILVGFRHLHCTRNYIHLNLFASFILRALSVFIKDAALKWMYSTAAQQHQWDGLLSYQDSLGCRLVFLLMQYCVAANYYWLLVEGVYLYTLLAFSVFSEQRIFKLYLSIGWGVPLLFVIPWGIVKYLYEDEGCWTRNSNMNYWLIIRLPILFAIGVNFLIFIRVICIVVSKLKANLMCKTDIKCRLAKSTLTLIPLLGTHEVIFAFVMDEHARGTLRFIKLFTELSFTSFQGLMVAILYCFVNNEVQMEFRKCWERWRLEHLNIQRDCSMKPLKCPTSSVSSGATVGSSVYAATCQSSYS
Experiment: cell-based or functional assay
No end group written: not given here. asialo oligosaccharide = asialo (digalactose) oligosaccharide chain
In this section we review reported Relative Activity (cAMP synthesis, EC50 relative to GLP-1 = 1) values for a set of binders.

A selection of reference data follows.
HAEGTFTSDVSSYLEC(disialo oligosaccharide)QAAKEFIAWLVKGRG [22Cys GLP-1-disialo]: 1 relative (GLP-1 = 1)
HAEGTFTC(disialo oligosaccharide)DVSSYLEGQAAKEFIAWLVKGRG [14Cys GLP-1-disialo]: < 0.1 relative (GLP-1 = 1)
HAEGTFTSDVSSYLEGQAC(disialo oligosaccharide)KEFIAWLVKGRG [25Cys GLP-1-disialo]: < 0.1 relative (GLP-1 = 1)

**Query** Could you tell me which Relative Activity (cAMP synthesis, EC50 relative to GLP-1 = 1) is on file for HAEGTFTSDVSSYLEGQC(disialo oligosaccharide)AKEFIAWLVKGRG [24Cys GLP-1-disialo] ?
**Result** < 0.1 relative (GLP-1 = 1)

**Query** What value of Relative Activity (cAMP synthesis, EC50 relative to GLP-1 = 1) has been reported for the following binder? HAEGTFTSDVSC(disialo oligosaccharide)YLEGQAAKEFIAWLVKGRG [18Cys GLP-1-disialo]
**Result** < 0.1 relative (GLP-1 = 1)

**Query** Using the record for HAEGTFTSDVSSYLEGQAAKEC(disialo oligosaccharide)IAWLVKGRG [28Cys GLP-1-disialo] , report its Relative Activity (cAMP synthesis, EC50 relative to GLP-1 = 1).
**Result** < 0.1 relative (GLP-1 = 1)

**Query** # input binder: HAEGTFTSDVSSYLEGQAAC(disialo oligosaccharide)EFIAWLVKGRG [26Cys GLP-1-disialo] ; wanted: its Relative Activity (cAMP synthesis, EC50 relative to GLP-1 = 1)
**Result** 0.2 relative (GLP-1 = 1)

**Query** Relative Activity (cAMP synthesis, EC50 relative to GLP-1 = 1) lookup needed for HAEGTFTSDVSSYLEGQAAC(asialo oligosaccharide)EFIAWLVKGRG [26Cys GLP-1-asialo] , thanks.
**Result** 0.8 relative (GLP-1 = 1)
